Tested on: mES-D3 cells and BALB/c-3T3 cells
Test: Classification of embryotoxicity by the ECVAM prediction model
Design: species or system murine
Settings: prediction model from mean IC50 3T3, IC50 ES and ID50
ASSAY_METRIC: Classification of the embryotoxicity

Example cases with answers are listed next.
CC1(C)S[C@@H]2[C@H](NC(=O)Cc3ccccc3)C(=O)N2[C@H]1C(=O)O [Penicillin G, penicillin G, reference compound] | None
CC(C)c1cc2c(c(O)c1O)[C@@]1(C(=O)O)CCCC(C)(C)[C@@H]1CC2 | Weak
C=CCc1ccc(O)c(OC)c1 | Strong
CCCCCCCCOC(=O)c1ccccc1C(=O)OCCCCCCCC [Dioctyl phthalate, dioctyl phthalate] | Weak

Now for another entry.
Query :: Quick one: Classification of the embryotoxicity for O=c1[nH]cc(F)c(=O)[nH]1 [5-fluorouracil, reference compound] ?
Result :: Strong
